Here, each record is paired with measured FACS geometric mean fold change over Jurkat parental data.
target: T1, huCD33-G69 stably expressed on Jurkat cells (human, UniProt P20138 18-364); experiment: FACS on cells;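 also: fixed Jurkat lines probed with myc-tagged scFv periplasmic extracts, anti-myc PE flow cytometry, PE MFI fold binned − <2, + 2–10, ++ 10–30, +++ >30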
T1 construct: whole, on cells; >200,000 receptors per cell; also called CD33 Mutant; CD33 R69G
T1 sequence (P20138 18-364 R69G): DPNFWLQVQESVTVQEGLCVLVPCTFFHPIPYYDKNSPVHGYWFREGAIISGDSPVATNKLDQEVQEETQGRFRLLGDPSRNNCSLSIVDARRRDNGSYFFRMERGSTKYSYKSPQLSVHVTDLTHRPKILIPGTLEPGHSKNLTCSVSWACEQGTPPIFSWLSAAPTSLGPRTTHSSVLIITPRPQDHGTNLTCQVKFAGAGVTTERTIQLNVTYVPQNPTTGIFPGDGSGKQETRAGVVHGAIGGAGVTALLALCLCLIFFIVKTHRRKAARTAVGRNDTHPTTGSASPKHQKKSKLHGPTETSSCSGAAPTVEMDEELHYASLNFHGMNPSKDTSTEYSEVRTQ
endpoint.name: FACS geometric mean fold change over Jurkat parental

binder	data.value
Polypeptide No. 133 (scFv, V domains shown, scFv) VH: EVQLLESGGGLVQPGGSLRLSCAASGFTFSSSWMHWVRQAPGKGLEWVSAISSSGDATYYADSVKGRFTISRDNSKNTLYLQMNSLRAEDTAVYYCAKFSDGGAGDSDYWGQGTLVTVSS VL: DIQMTQSPSSLSASVGDRVTITCRASQGISSYLAWYQQKPGKAPKLLIYTASSLQSGVPSRFSGSGSGTDFTLTISSLQPEDFATYYCQQYDNLPITFGQGTRLEIKR	2 to 10 fold
Polypeptide No. 128 (scFv, V domains shown, scFv) VH: QVQLVQSGAEVKKPGASVKVSCKASGYTFTNYYIHWVRQAPGQGLEWLGWTNPINGDTGSAQKFQGRVTMTRDTSTSTVYMELSSLRSEDTAVYYCAKEGQLAWADYYYYMDVWGKGTTVTVSS VL: DIQMTQSPSSLSASVGDRVTITCRASQGISSALAWYQQKPGKAPKLLIYAASSLQSGVPSRFSGSGSGTDFTLTISSLQPEDFATYYCQQSYSTPLTFGGGTKVEIKR	10 to 30 fold
Polypeptide No. 137 (scFv, V domains shown, scFv) VH: QVQLVQSGAEVKKPGASVKVSCKASGYTFTDYYIHWVRQAPGQGLEWMGMVNPSGGSANYAQKFQGRVTMTRDTSTSTVYMELSSLRSEDTAVYYCAKDSAWQEPYYFDYWGQGTLVTVSS VL: DIQMTQSPSSLSASVGDRVTITCRASQGISSYLAWYQQKPGKAPKLLIYDASNLDTGVPSRFSGSGSGTDFTLTISSLQPEDFATYYCQQSYSTPLTFGGGTKVEIKR	> 30 fold

From: patent US20240101668A1
